- experimental-system: UniProt:P14324
- Sequence (P14324 67-419 limits assumed): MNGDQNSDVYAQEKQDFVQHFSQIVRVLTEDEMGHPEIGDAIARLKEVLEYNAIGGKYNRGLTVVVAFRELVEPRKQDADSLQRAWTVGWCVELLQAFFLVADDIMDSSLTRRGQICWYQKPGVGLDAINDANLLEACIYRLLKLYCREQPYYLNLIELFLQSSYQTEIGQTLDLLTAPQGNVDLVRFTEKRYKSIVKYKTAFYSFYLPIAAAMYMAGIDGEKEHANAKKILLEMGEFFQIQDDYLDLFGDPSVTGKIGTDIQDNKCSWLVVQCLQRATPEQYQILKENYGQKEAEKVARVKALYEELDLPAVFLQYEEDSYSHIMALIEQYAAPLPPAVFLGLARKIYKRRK
experimental-readout: IC50

IC50 recorded for this compound, CCc1cncn1CC(O)(P(=O)(O)O)P(=O)(O)O [Reference-Example 2] , is 2.4 to 3.1 nM
